// provenance: the supplement of paper PMC11246515

Assay: total protein half-life in vivo (active degradation + dilution); higher = more stable protein
Conditions: wild type E. coli NCM3722; growth: N-lim chemostat; doubling time 6 h
# total protein half-life in vivo per record follows
Lab book: enter the figure in h, no units written.

Give the reported value of total protein half-life in vivo for this record: `MRLFNWRRQAVLNAMPLVKPDQVRTPWHEFWRRFRRQHMAMTAALFVILLIVVAIFARWIAPYDAENYFDYDNLNNGPSLQHWFGVDSLGRDIFSRVLVGAQISLAAGVFAVFIGAAIGTLLGLLAGYYEGWWDRLIMRICDVLFAFPGILLAIAVVAVLGSGIANVIIAVAIFSIPAFARLVRGNTLVLKQQTFIESARSIGASDMTVLLRHILPGTVSSIVVFFTMRIGTSIISAASLSFLGLGAQPPTPEWGAMLNEARADMVIAPHVAVFPALAIFLTVLAFNLLGDGLRDALDPKIKG`
6.82

For the sequence MNYSLKQLKVFVTVAQEKSFSRAGERIGLSQSAVSHSVKELENHTGVRLLDRTTREVVLTDAGQQLALRLERLLDELNSTLRDTGRMGQQLSGKVRVAASQTISAHLIPQCIAESHRRYPDIQFVLHDRPQQWVMESIRQGDVDFGIVIDPGPVGDLQCEAILSEPFFLLCHRDSALAVEDYVPWQALQGAKLVLQDYASGSRPLIDAALARNGIQANIVQEIGHPATLFPMVAAGIGISILPALALPLPEGSPLVVKRITPVVERQLMLVRRKNRSLSTAAEALWDVVRDQGNALMAGREGDPLYQI [P0ACR7] , report total protein half-life in vivo.
4.85

Specify total protein half-life in vivo for `MTTMLEVAKRAGVSKATVSRVLSGNGYVSQETKDRVFQAVEESGYRPNLLARNLSAKSTQTLGLVVTNTLYHGIYFSELLFHAARMAEEKGRQLLLADGKHSAEEERQAIQYLLDLRCDAIMIYPRFLSVDEIDDIIDAHSQPIMVLNRRLRKNSSHSVWCDHKQTSFNAVAELINAGHQEIAFLTGSMDSPTSIERLAGYKDALAQHGIALNEKLIANGKWTPASGAEGVEMLLERGAKFSALVASNDDMAIGAMKALHERGVAVPEQVSVIGFDDIAIAPYTVPALSSVKIPVTEMIQEIIGRLIFMLDGGDFSPPKTFSGKLIRRDSLIAPSR` and stop.
3.59

New cases:
For the sequence MPRANEIKKGMVLNYNGKLLLVKDIDIQSPTARGAATLYKMRFSDVRTGLKVEERFKGDDIVDTVTLTRRYVDFSYVDGNEYVFMDKEDYTPYTFTKDQIEEELLFMPEGGMPDMQVLTWDGQLLALELPQTVDLEIVETAPGIKGASASARNKPATLSTGLVIQVPEYLSPGEKIRIHIEERRYMGRAD [P0A6N8] , give its reported total protein half-life in vivo.
4.59

For the sequence MFEYLPELMKGLHTSLTLTVASLIVALILALIFTIILTLKTPVLVWLVRGYITLFTGTPLLVQIFLIYYGPGQFPTLQEYPALWHLLSEPWLCALIALSLNSAAYTTQLFYGAIRAIPEGQWQSCSALGMSKKDTLAILLPYAFKRSLSSYSNEVVLVFKSTSLAYTITLMEVMGYSQLLYGRTYDVMVFGAAGIIYLVVNGLLTLMMRLIERKALAFERRN [P0AE30] , report total protein half-life in vivo.
5.22
